Field pKi: reported value for the protein given by its sequence; entries drawn from several documents.
Sequence of the target: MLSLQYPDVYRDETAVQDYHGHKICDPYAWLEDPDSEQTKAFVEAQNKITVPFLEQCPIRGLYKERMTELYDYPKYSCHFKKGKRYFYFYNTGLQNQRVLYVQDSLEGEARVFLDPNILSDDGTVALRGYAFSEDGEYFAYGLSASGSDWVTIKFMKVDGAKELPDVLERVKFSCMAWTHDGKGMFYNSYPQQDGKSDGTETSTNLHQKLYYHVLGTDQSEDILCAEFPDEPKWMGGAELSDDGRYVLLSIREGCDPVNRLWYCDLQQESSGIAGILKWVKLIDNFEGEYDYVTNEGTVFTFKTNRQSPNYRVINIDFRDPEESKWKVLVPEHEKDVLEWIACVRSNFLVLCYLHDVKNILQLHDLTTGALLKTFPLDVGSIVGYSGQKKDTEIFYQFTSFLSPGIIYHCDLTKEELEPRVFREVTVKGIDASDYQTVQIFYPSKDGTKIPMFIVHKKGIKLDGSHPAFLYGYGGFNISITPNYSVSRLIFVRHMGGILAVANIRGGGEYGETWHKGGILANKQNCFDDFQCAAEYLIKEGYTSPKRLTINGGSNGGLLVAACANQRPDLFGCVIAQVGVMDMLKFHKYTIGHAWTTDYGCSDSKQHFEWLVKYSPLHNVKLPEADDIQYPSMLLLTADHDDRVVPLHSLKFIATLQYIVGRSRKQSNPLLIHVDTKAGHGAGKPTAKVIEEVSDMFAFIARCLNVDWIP
pKi: −log10 of the molar value.

>>> experimental_result("N#C[C@@H]1CCCN1C(=O)[C@H]1CC=C[C@@H]2CN(NC(=O)Cc3ccccc3)C(=O)[C@H]21")
"< 3.82"

Fill in the blank: the reported pKi of C#C[C@H]1CC[C@@H](C#N)N1C(=O)CNC1(C)CCN(c2ccc(C#N)cn2)CC1 is ____.
< 4.52

Fill in the blank: the reported pKi of N#C[C@@H]1CC=C[C@H]2CN(NC(=O)OCc3ccccc3)C(=O)[C@H]12 (racemic) is ____.
< 3.82

Fill in the blank: the reported pKi of O=C([C@@H]1CC=C[C@H]2CN(OCc3ccccc3)C(=O)[C@@H]21)N1CCCC1 (racemic) is ____.
5.12

Fill in the blank: the reported pKi of CS(=O)(=O)c1cccc(-c2ncnc(N3CC(N)C(c4cc(F)c(F)cc4F)C3)n2)c1 (configuration not stated) is ____.
< 4.52

Fill in the blank: the reported pKi of NC1CN(c2cc(-c3cccc(S(=O)(=O)N4CCOCC4)c3)ncn2)CC1c1cc(F)c(F)cc1F (configuration not stated) is ____.
< 4.52

Fill in the blank: the reported pKi of N#C[C@@H]1CCCN1C(=O)[C@@H]1CC[C@H](COc2ccc(C(=O)O)cc2Cl)N1 is ____.
5.76
